# targetOfAssay: SARS-CoV-2 wild type RBD (wt_RBD-AviHis) (SARS-CoV-2 (Wuhan/Wildtype strain))
# testName: BLI, biotinylated RBD, mass transport model fit
For each of the binders below, state its Kd.

Which Kd reading was recorded for the binder Re5D06 (VHH) VHH: QVQLVESGGGLVQPGGSLRLSCAASGITLDYYAIGWFRQAPGKEREGVSRIRSSDGSTNYADSVKGRFTMSRDNAKNTVYLQMNSLKPEDTAVYYCAYGPLTKYGSSWYWPYEYDYWGQGTQVTVSS ? ≤ 0.01 nM

Which Kd reading was recorded for the binder Re9B09 (VHH) VHH: QVQLVESGGGLVQPGGSLRLSCAASGFTLDYYAIGWFRQAPGKEREGVSRISSSDGSTDYADSVKGRFTISRDNAKNTVYLQMNSLKPEDTAVYYCATVPGTYYSGNWYYTWHPEAVDYWGKGTQVTVSS ? 0.03 nM

Which Kd reading was recorded for the binder Re6H06 (VHH) VHH: QVQLVESGGGLVQPGGSLRLSCAASGVTLDYYAIGWFRQAPGKEREGVSCTSSSDGSTYYADSVKGRFTISRDNAKNTVYLQMNSLKPEDTGVYYCAVVPQTYYGGKYYSQCTANGMDYWGKGTLVTVSS ? ≤ 0.01 nM

Which Kd reading was recorded for the binder Re32D03 (VHH) VHH: QVQLVESGGGLVQPGGSLRLSCAISGITLDYYAVGWFLQAPGKEREGISCMRNWDGRTVYAPSVKGRFTISSDNAKKMVYLEMDNLKSEDTGVYYCAAGPLPPGISCRIPTPLGYDDWGQGTQVTVSS ? ≤ 0.01 nM
